- System Tested: T1, human GIPR (human, UniProt P48546)
- T1 sequence: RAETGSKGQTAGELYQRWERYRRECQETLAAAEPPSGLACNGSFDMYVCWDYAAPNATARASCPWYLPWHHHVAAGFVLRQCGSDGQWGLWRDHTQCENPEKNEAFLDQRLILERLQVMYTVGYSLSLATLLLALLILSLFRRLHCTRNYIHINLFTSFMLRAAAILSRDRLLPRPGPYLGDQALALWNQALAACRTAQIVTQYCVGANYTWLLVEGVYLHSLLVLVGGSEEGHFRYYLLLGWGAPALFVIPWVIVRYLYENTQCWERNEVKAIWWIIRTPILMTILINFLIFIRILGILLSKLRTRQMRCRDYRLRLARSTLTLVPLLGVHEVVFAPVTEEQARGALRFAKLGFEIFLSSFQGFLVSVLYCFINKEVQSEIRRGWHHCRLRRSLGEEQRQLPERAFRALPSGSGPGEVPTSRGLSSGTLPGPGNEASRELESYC
- Protocol: [125I]GIP displacement, hGIPR VLP
pIC50: −log10 of the molar value.
// reported pIC50 for each item listed

Binder: YXEGTXISDYSIXLDRXAQXNFVNWXLAQRPSSGAPPPS (not fully specified; N-methyl on Tyr 1; Aib at 2, 13, 20; Iva at 6, 26; Lys(Eda-PEG(3)-PEG(3)-) at 17; C-terminal amide) [Compound 307]
pIC50: 8.30
//
Binder: YAEGTVVSLYSIALDKQHQQEFVKWLLKGGPSSGAPPPSK [Compound 24]
pIC50: 6.43
//
Binder: YAEGTVVSLYSIALYKIHQQEFVKWLLKGGPSSGAPPPSK [Compound 26]
pIC50: 6.38
//
Binder: YAEGTVVSLYSIALDKIHQQEFVKWLLKGGPSSGAPPPSK [Compound 25]
pIC50: 6.28
